Tested on: HIV-1 in human PBM cells
Assay: Anti-HIV activity in human PBM cells
Assay type: cell-based
Details: Human immunodeficiency virus 1, PBMC
MEASURED ENDPOINT: EC50 (µM)
Just the number please, in µM, no unit attached.

Given the entry O[C@]12C=C(c3nccc4c3[nH]c3ccccc34)[C@@H]3CCN(CCCC/C=C\CC1)C[C@@]31C[C@@H]3/C=C\CCCCN3[C@@H]12 , report its measured EC50.
12.9

###

Experiment: Cytotoxicity against human lung and colon carcinoma cells
Format: cell-based
MEASURED ENDPOINT: IC50

Requested read-out: IC50. Entry: O[C@@H]1CCCN2CC[C@@H]1O[C@@]13CC[C@@H](OC[C@]45CN6CCCC/C=C\CC[C@](O)(C=C(c7nccc8c7[nH]c7ccccc78)[C@@H]4CC6)[C@H]25)[C@@H](O)CCN1[C@@H]1[C@]2(CN4CCCC/C=C\CC[C@]1(O)C=C(c1nccc5c1[nH]c1ccccc15)[C@@H]2CC4)C3
1 µg/mL
